- method_description: Cmax in murine at 10 mg/kg, po
- Assay type: ADME, organism-based
- Set-up: dose 10 mg/kg, route oral
- run_parameters: mouse, in vivo
measure_name: Cmax (µM)

P. O=C(NO)[C@H]1CC2(CC2)CN[C@@H]1C(=O)N1CC=C(c2ccccc2)CC1
Q. COC(=O)N1CC2(CC2)C[C@H](C(=O)NO)[C@H]1C(=O)N1CC=C(c2ccccc2)CC1
Request: From the items above, decide which of P and Q has the lower Cmax reading. To answer, give the label that identifies your chosen option.
Result: P

---

- method_description: Protein binding in murine plasma
- Type: ADME, organism-based
- run_parameters: mouse, read-out: PPB (converted)
measure_name: fraction unbound

1. O=C(NO)[C@H]1CC2(CC2)CN[C@@H]1C(=O)N1CC=C(c2ccccc2)CC1
2. COC(=O)N1CC2(CC2)C[C@H](C(=O)NO)[C@H]1C(=O)N1CC=C(c2ccccc2)CC1
Request: From the items above, decide which of 1 and 2 has the lower fraction unbound reading. To answer, give the label that identifies your chosen option.
Result: 1
